target: Fc-fusion protein of human PSMA (hPSMA-Fc) (Homo sapiens, UniProt Q04609); construct: purchased Acro Biosystems PSA-H5264; assay: Surface plasmon resonance assay (Biacore T200, single cycle kinetic); assay type: binding; details: SPR, hPSMA-Fc, single cycle kinetic, 25° C.; category; read-out: pKD CAT (converted)
Sequence (Q04609 44-750 limits assumed): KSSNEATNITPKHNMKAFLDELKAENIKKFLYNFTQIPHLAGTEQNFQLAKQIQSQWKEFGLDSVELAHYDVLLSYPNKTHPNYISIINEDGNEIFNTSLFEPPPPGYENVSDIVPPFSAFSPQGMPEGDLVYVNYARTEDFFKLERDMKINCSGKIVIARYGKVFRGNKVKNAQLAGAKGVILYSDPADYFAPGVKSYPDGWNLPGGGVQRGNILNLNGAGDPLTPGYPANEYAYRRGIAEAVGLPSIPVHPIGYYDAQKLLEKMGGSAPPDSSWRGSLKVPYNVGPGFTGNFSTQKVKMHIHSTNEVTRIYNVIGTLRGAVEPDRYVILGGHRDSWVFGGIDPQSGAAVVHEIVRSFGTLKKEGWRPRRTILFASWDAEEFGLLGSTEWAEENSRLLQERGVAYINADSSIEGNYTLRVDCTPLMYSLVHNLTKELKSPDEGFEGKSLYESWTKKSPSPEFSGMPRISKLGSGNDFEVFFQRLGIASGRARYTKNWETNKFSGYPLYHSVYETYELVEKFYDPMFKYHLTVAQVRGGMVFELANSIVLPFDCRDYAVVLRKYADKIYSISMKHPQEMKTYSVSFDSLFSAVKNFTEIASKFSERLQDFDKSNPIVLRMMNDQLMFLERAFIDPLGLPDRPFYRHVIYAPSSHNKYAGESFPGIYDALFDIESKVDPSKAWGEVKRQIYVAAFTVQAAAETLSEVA
Numbered stars: 1 amine (or outer) side, 2 acyl side, 3 side chain; on linkers, the order of the positions; unused ones are H or OH. Bridge positions count the residues as written; N and C are the ends. Square brackets hold non-standard residues; d marks the D form. Peptide text beside a SMILES is read from it. * marks the point of attachment. X3 = O=C(O)CN1CCN(CC(=O)O)CCN(CC(=O)NCCCOCCOCCOCCCN*)CCN(CC(=O)O)CC1; DOTA = O=C(O)CN1CCN(CC(=O)O)CCN(CC(=O)*)CCN(CC(=O)O)CC1; Phe(4-Cl) = N[C@@H](Cc1ccc(Cl)cc1)C(=O)O; Propanoyl(3-SO2NH2) = NS(=O)(=O)CCC(=O)*; X1 = O=C(CC1CCN([*:1])CC1)[*:2]; Suc = O=C(CCC(=O)[*:2])[*:1]; Tle = CC(C)(C)[C@H](N)C(=O)O; Aib = CC(C)(N)C(=O)O
Recorded Kd by entry

compound	observedResult
C[C@@H](O)[C@H](NC(=O)[C@@H](NC(=O)[C@@H]1CSSC[C@H](NC(=O)[C@H](Cc2ccc(Cl)cc2)NC(=O)C(C)(C)NC(=O)CCS(N)(=O)=O)C(=O)N[C@@H](CCCCN)C(=O)N[C@@H](CCCNC(=N)N)C(=O)NC(C)(C)C(=O)N[C@@H](CC(N)=O)C(=O)N1)C(C)(C)C)C(=O)N1CCC(CC(=O)N[C@H](CCCCNC(=O)CN2CCN(CC(=O)O)CCN(CC(=O)O)CCN(CC(=O)O)CC2)C(N)=O)CC1 [PSM-0215] ({Propanoyl(3-SO2NH2)}-[Aib][Phe(4-Cl)]CKR[Aib]NC[Tle]T[X1][dK](DOTA)-NH2; disulfide 3-8)	12.6 to 126 nM

Please find the next compound below.
Enquiry: Respond only with Kd recorded for C[C@@H](O)[C@H](NC(=O)[C@@H](NC(=O)[C@@H]1CSSC[C@H](NC(=O)[C@H](Cc2ccccc2)NC(=O)C(C)(C)NC(=O)[C@@H](NC(=O)CCC(=O)NCCCOCCOCCOCCCNC(=O)CN2CCN(CC(=O)O)CCN(CC(=O)O)CCN(CC(=O)O)CC2)[C@@H](C)O)C(=O)N[C@@H](CCCCN)C(=O)N[C@@H](CCCNC(=N)N)C(=O)NC(C)(C)C(=O)N[C@@H](CC(N)=O)C(=O)N1)C(C)(C)C)C(N)=O [PSM-0259] ({X3-Suc}-T[Aib]FCKR[Aib]NC[Tle]T-NH2; disulfide 4-9)
Return: < 12.6 nM
